assay-target: Tubulin (Bos taurus) (UniProt Q6B856+Q862L2+Q862F3)
run-description: Inhibition of [3H]colchicin binding to bovine brain tubulin incubated at 5 uM and 30 degreeC for 10 mins in presence of GTP by scintillation spectroscopic method
experimental-readout: inhibition
Just so you know, I need the unit written after the number.

// query Give reported inhibition value for "C=CC[C@@H](CC/C(C)=C/C=C/CC/C=C\c1csc(C(C)(C)C)n1)OC"
// result 38%

====

assay-target: Tubulin (Bos taurus) (UniProt Q6B856+Q862L2+Q862F3)
run-description: Inhibition of [3H]colchicine binding to bovine brain tubulin at 5 uM relative to control
experimental-readout: inhibition (%)
# number only, unit % dropped from output

{"columns": ["compound", "inhibition [%]"],
 "data": [
  ["COc1cc(/C=C\\CC/C=C/C=C(\\C)CCC(O)c2cc3ccccc3o2)cc(OC)c1OC (stereo unspecified)", 12.5],
  ["COc1cc(/C=C\\CC/C=C/C=C(\\C)CCC(O)c2cc3ccccc3s2)cc(OC)c1OC (stereo unspecified)", 30.2],
  ["COc1ccc(OC)c(C(O)CC/C(C)=C/C=C/CC/C=C\\c2cc(OC)c(OC)c(OC)c2)c1 (stereo unspecified)", 0.7],
  ["COc1ccccc1C(O)CC/C(C)=C/C=C/CC/C=C\\c1cc(OC)c(OC)c(OC)c1 (stereo unspecified)", 5]
]}

// query Give reported inhibition value for COc1cc(/C=C\CC/C=C/C=C(\C)CCC(O)c2cccs2)cc(OC)c1OC (stereo unspecified)
// result 9.9
